B1: HDV Ribozyme (parent)
chain: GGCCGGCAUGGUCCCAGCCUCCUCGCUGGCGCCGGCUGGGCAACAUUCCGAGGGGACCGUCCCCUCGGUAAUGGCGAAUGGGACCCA

- Variants of: B1
- assay: self-cleavage, relative activity (ratio to wild type); higher = more cleavage; co-transcriptional
Listed here are variants together with their documented self-cleavage.
Lab note: jot down the number only; don't add units.

| macromolecule-sequence | self-cleavage |
| --- | --- |
| GGCCGGCAUGGUCCCAGCCUACUCGCUGGCGCCGGCUGGGCAACAUUCCGAGGGGACCGUCCCCUCGGUAAUGGCGAAUGGGACCGA [C21A C86G] | 0.111 |
| AGCCGGCAUGGUCCCAGCCUCCUCGCUGGCGCCGGCUGGGCAACAUUCCGAGGGGAACGUCCCCUCGGUAAUGGCGAAUGGGACCCA [G1A C57A] | 0.208 |
| GGCCGGCAUGGUCCCAGCCUCCUCGCUGGCGCCGUCUGGGCAACAUUCCGAGGGGACCAUCCCCUCGGUAAUGGCGAAUGGGACCCA [G35U G59A] | 0.415 |
| GGCCGGCAUGGUCCCAGCCUCCUCGCUGGCGCCGGCUGGUCAACAUUCCGAGGGGACCGUCCCCUCGGUAAUGACGAAUGGGACCCA [G40U G74A] | 0.415 |
| GGCCGGCAUGGCCCCAGCCUCCUCGCUGGCGCCGGCUGGGCAACAUUCCGAGUGGACCGUCCCCUCGGUAAUGGCGAAUGGGACCCA [U12C G53U] | 0.427 |
| GGCCGGCAUGGUCCCAGCCUCCUCGCUGGCGCCGGCUGGGCAACAUUCCGAGGGGACCGUCCCCUCGGUAAUGGCGCAUGGUACCCA [A77C G82U] | 0.0755 |
| GGCCGGCAUGGUCCCAGCCUCCUCGCUGGCGCCGGCUAGGCAACAUUCCGCGGGGACCGUCCCCUCGGUAAUGGCGAAUGGGACCCA [G38A A51C] | 0.212 |
| GGCCGGCAUGGUCCCAGCCUCCUCGCUGGCGCCGGCUGAGCAACAUUCCGAGGGGACCGUCCCCUCGGUAAUGGCGAAUUGGACCCA [G39A G80U] | 0.178 |
| GGCCGGCAUUGUCCCAGCCUCCUUGCUGGCGCCGGCUGGGCAACAUUCCGAGGGGACCGUCCCCUCGGUAAUGGCGAAUGGGACCCA [G10U C24U] | 0.427 |
| GGCCGGCAUGGUCCCAGCCUCCUCGCUGGCGUCGGCUGGGCAACAUUCCGAGGGGACCGCCCCCUCGGUAAUGGCGAAUGGGACCCA [C32U U60C] | 0.7 |

[ask] Using the record for GGCCGGCAUGGUCCCAGCCUCCUCGCUGGCCCCGGCUGGGCAACAUUCCGAGGGGACCGUCCCCUCGGUAAUGGCGAAUGGGUCCCA [G31C A83U] , report its self-cleavage.
[reply] 0.173

[ask] What about GGCCGGCAUGGUCCCAGCCUCCUCGCUGGCGCCGGCUGGGCAACAUUCUGAGGGGACCGUCGCCUCGGUAAUGGCGAAUGGGACCCA [C49U C62G] ?
[reply] 0.665

[ask] Also GGCCGGCAUGGUCCCAGCCUGCUCGCUGGCGCCGGCUGGGCAACAUUCCGAGGGGACCGUCCCCUCGGCAAUGGCGAAUGGGACCCA [C21G U69C] ?
[reply] 0.104

[ask] Let us now turn to GGCCGGCAUGGUCCCAGCCUCCUCGCUGGCGCCGGCUGGGCAACAUUCCGAGGGGAUCGUCCCCUCGGUAAUGGCGAAUGAGACCCA [C57U G81A]
[reply] 0.415

[ask] Also, GGCCGGCAUGGUGCCAGCCUCCUCGCUGGCGCUGGCUGGGCAACAUUCCGAGGGGACCGUCCCCUCGGUAAUGGCGAAUGGGACCCA [C13G C33U] please.
[reply] 0.0475

[ask] Now consider GGCUGGCAUGGUCCCAGCCUCCUCGCUGGCGCCGGCUGGGCAACAUUCAGAGGGGACCGUCCCCUCGGUAAUGGCGAAUGGGACCCA [C4U C49A] and answer again.
[reply] 0.332

[ask] For GGCCGGCAUGGUCCGAGCCUCCUCGCUGGCGCCGGCUGGGCAACAUUCCGAGGGGACCGUCCCCUCGGUAACGGCGAAUGGGACCCA [C15G U72C] then?
[reply] 0.119

[ask] Field entry: GGCCGGCAUGGUCCCAGCCUCCUCGCUGGCGCCGGCUGGGCAACAGUCCGAGGGGACCGUCUCCUCGGUAAUGGCGAAUGGGACCCA [U46G C62U]
[reply] 0.811

[ask] Field entry: GGCCGGCAUGGUCCCAGCCUCCUCGCUGGCGCCGGGUGGUCAACAUUCCGAGGGGACCGUCCCCUCGGUAAUGGCGAAUGGGACCCA [C36G G40U]
[reply] 0.108

[ask] Also need GGCCGGCAUUGUCCCAGCCUCCUCGCUGGCGCCGGCUGGGCAGCAUUCCGAGGGGACCGUCCCCUCGGUAAUGGCGAAUGGGACCCA [G10U A43G] , thanks.
[reply] 0.0604

[ask] Next entry: GGCCGGCAUGGUCCCAGCCUCCUCGCUGGCGCCUGCUGGGCAAGAUUCCGAGGGGACCGUCCCCUCGGUAAUGGCGAAUGGGACCCA [G34U C44G]
[reply] 0.173

[ask] Request: GGCCGGCAUGGUCCUAGCCUCCUCGCUGGCGCCGGCUGGGCAAGAUUCCGAGGGGACCGUCCCCUCGGUAAUGGCGAAUGGGACCCA [C15U C44G]
[reply] 0.214
